The values you see were collected from ChEMBL document CHEMBL1909046.

measured_target: 5-hydroxytryptamine receptor 6 (Homo sapiens); note: in other assays of this panel Not Active means under 50% inhibition at 10 µM
Sequence (P50406 whole entry): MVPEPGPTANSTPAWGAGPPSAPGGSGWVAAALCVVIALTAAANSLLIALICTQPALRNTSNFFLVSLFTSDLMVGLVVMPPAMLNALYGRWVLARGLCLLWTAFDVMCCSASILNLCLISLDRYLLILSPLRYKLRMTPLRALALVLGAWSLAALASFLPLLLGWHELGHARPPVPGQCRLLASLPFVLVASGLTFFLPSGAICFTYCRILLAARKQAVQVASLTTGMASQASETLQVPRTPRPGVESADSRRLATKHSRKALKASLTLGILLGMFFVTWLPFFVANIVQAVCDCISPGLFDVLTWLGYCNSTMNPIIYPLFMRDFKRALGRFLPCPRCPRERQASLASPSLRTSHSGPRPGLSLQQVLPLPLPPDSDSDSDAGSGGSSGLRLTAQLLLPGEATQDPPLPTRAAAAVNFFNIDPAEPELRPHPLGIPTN
Type: cell membranes, HeLa, Membrane
assay_context: hela; read-out: Ki
test_readout: Ki

Given the sequence THIMEROSAL , write its reported Ki.
2760 nM

====

Listed here: items and their measured pIC50.
protocol_details: DRUGMATRIX: GABAA, Flunitrazepam, Central radioligand binding (ligand: [3H] Flunitrazepam)
Type: cell membranes, Rattus norvegicus, Wistar, Brain, Membrane
assay_context: Not Active = under 50% inhibition at 10 µM; read-out: IC50
pIC50 here: minus log base 10 of the concentration, concentration in moles per litre.

CN1C(=O)CN=C(c2ccccc2)c2cc(Cl)ccc21 : 7.54

API: the following record is the query input.
Supply pIC50 value. Item: C#C[C@]1(O)CC[C@H]2[C@@H]3CCC4=Cc5oncc5C[C@]4(C)[C@H]3CC[C@@]21C
4.26

====

measured_target: Beta-1 adrenergic receptor (Homo sapiens, UniProt P08588)
Sequence (P08588 whole entry): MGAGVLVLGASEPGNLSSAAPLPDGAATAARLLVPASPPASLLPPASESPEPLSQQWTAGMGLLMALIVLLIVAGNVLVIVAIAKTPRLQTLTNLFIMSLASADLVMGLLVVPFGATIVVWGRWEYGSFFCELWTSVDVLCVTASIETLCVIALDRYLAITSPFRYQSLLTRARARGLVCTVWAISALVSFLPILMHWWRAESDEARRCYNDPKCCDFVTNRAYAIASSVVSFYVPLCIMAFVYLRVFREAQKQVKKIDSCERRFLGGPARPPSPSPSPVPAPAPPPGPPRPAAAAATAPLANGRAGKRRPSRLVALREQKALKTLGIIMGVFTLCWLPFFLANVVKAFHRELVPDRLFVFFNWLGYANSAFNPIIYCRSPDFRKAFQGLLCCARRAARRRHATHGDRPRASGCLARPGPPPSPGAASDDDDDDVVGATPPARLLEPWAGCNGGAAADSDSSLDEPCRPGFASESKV
protocol_details: DRUGMATRIX: Adrenergic beta1 radioligand binding (ligand: [125I] Cyanopindolol)
Type: cell membranes, CHO-K1, Membrane
assay_context: Not Active = under 50% inhibition at 10 µM; read-out: IC50
test_readout: pIC50
In textbook form, pIC50 equals minus log to base ten of the concentration in mol/L.

CC(C)C[C@H]1C(=O)N2CCC[C@H]2[C@]2(O)O[C@](NC(=O)[C@@H]3C=C4c5cccc6[nH]c(Br)c(c56)C[C@H]4N(C)C3)(C(C)C)C(=O)N12 [BROMOCRIPTINE] : 5.62

Note: attention shifts to another entry.
Look up and state reported pIC50 for CC(CCc1ccc(O)cc1)NCCc1ccc(O)c(O)c1 (configuration not stated) [DOBUTAMINE]
5.71

====

measured_target: 5-hydroxytryptamine receptor 1A (Rattus norvegicus, UniProt P19327); note: in other assays of this panel Not Active means under 50% inhibition at 10 µM
Sequence (P19327 whole entry): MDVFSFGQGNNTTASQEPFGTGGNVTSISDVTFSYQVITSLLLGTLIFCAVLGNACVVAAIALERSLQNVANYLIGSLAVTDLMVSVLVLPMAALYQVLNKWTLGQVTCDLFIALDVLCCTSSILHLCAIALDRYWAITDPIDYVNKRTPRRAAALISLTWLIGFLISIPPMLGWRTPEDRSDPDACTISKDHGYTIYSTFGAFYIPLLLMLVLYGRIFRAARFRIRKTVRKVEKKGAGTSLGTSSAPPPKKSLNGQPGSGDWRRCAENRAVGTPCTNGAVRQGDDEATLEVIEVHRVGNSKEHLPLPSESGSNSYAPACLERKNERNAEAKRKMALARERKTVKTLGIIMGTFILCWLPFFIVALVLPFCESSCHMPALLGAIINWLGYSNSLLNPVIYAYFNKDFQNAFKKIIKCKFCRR
Type: cell membranes, CHO-K1, Membrane
assay_context: read-out: Ki
test_readout: log10 of Ki (log10 of the value in nM)
Quick note: numbers are log10 of Ki, with nM as the unit.

Entry CCN[C@@H](C)Cc1cccc(C(F)(F)F)c1 needs its log10 of Ki filled in; supply it.
3.29

Specify reported log10 of Ki for the molecule shown: CN1C[C@H](C(=O)N[C@]2(C)O[C@@]3(O)[C@@H]4CCCN4C(=O)[C@H](Cc4ccccc4)N3C2=O)C[C@@H]2c3cccc4[nH]cc(c34)C[C@H]21 [DIHYDROERGOTAMINE]
-0.42

Provide only the value of recorded log10 of Ki for CC(C)C[C@H]1C(=O)N2CCC[C@H]2[C@]2(O)O[C@](NC(=O)[C@@H]3C=C4c5cccc6[nH]c(Br)c(c56)C[C@H]4N(C)C3)(C(C)C)C(=O)N12
0.51

Give the reported log10 of Ki for this molecule. CNS(=O)(=O)Cc1ccc2[nH]cc(CCN(C)C)c2c1
2.66

Identify measured log10 of Ki associated with N=C(N)N/N=C/c1c(Cl)cccc1Cl
3.07

Retrieve log10 of Ki measured for CC[C@@H](CO)NC(=O)[C@@H]1C=C2c3cccc4c3c(cn4C)C[C@H]2N(C)C1 [METHYSERGIDE] and print it.
1.49

Output measured log10 of Ki for this item: CC(C)(C)NC[C@H](O)COc1nsnc1N1CCOCC1
3.19

Supply reported log10 of Ki belonging to this molecule: OCCN1CCN(CCCN2c3ccccc3Sc3ccc(C(F)(F)F)cc32)CC1
2.97
